target: Recombinant Human Siglec-3/CD33 protein (His-CD33) (Homo sapiens (Human)); assay: Differential scanning fluorimetry (DSF) thermal shift assay; type: binding; conditions: thermal melt shift of 0.5 μM CD33 protein with 50 μM compound
Sequence (P20138 18-259): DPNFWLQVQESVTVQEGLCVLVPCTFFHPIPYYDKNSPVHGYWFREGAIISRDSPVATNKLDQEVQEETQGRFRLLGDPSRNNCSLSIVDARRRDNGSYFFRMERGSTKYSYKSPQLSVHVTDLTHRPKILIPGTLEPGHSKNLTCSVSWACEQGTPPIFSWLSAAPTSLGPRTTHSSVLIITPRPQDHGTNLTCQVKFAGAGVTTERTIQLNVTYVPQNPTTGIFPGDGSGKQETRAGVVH
In this section we review reported DSF (dTmD) values for a set of compounds.
Lab note: jot down the number only; don't add units.

Which DSF (dTmD) value is on record for `CC(=O)N[C@H]1[C@H]([C@H](O)[C@H](O)CNC(=O)c2cc(C)c(O)c(C)c2)O[C@@](CCN2CCNC[C@]23CCN(C(=O)OC(C)(C)C)C3)(C(=O)O)C[C@@H]1O` ?
11.4

Item: `CC(=O)N[C@H]1[C@H]([C@H](O)[C@H](O)CNC(=O)c2cc(F)c(F)c(F)c2)O[C@@](CCN2CCOC[C@@]23CCN(C(=O)OC(C)(C)C)C3)(C(=O)O)C[C@@H]1O`
5.0

Item: `CC(=O)N[C@H]1[C@H]([C@H](O)[C@H](O)CNC(=O)c2cc(Cl)c(F)c(Cl)c2)O[C@@](CCN2CCOC[C@@]23CCN(C(=O)OC(C)(C)C)C3)(C(=O)O)C[C@@H]1O`
11.4
